Molecular target: T1, RXFP1 receptor (endogenous, on OVCAR5 cells) (UniProt Q9HBX9 1-757, limits assumed)
T1 sequence (looked up): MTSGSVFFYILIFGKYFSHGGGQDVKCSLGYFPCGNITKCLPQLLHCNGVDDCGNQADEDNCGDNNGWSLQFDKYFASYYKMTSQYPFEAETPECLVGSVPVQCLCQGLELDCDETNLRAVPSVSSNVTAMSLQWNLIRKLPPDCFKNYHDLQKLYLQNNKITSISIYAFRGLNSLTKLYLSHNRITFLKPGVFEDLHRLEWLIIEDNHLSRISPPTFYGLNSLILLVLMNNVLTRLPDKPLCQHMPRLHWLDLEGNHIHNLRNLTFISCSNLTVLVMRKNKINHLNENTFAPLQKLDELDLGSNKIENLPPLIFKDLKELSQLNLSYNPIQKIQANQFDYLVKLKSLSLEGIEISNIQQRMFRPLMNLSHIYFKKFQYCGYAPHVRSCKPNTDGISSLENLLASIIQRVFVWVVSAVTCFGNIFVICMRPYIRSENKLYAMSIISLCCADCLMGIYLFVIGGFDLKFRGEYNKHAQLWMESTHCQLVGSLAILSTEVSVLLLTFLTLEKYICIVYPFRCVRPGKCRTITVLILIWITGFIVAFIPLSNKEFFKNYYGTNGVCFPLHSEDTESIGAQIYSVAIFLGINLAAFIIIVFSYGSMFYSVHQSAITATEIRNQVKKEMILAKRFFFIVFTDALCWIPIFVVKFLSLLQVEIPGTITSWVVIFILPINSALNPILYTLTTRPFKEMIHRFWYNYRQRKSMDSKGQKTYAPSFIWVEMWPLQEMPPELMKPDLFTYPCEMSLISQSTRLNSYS
Experiment: cell-based or functional assay
Starred links: 1 amine or outer side, 2 acyl side, 3 side chain; linkers in the order of their positions; H or OH if unused. Non-standard residues stand in square brackets, D forms with d. Groups on a side chain read outwards from the residue. *: point of attachment. TTDS = 4-[3-[2-[2-(3-aminopropoxy)ethoxy]ethoxy]propylamino]-4-oxo-butanoyl; γGlu = O=C(O)[C@H](CCC(=O)[*:2])N[*:1]; Stearoyl = CCCCCCCCCCCCCCCCCC(=O)*; Palmitoyl = CCCCCCCCCCCCCCCC(=O)*; Aib = CC(C)(N)C(=O)O
readout.name: EC50 (nM), OVCAR 5 cells (cAMP)

binder	number
Ac-LEGREKVRAK(Ac)I[Aib][Aib]EGK([TTDS-TTDS-TTDS-TTDS-γGlu-γGlu-γGlu-Stearoyl])STFS[Aib]RKK(Ac)-NH2 [peptide of SEQ ID NO: 59]	0.09
Ac-LEGREKVRAK(Ac)I[Aib][Aib]EGK([TTDS-TTDS-γGlu-γGlu-γGlu-Palmitoyl])STWS[dK]RAK(Ac)-NH2 [peptide of SEQ ID NO: 17]	4.6
